target: UniProtKB Q93009; test: USP7 fluorescence polarisation (FP) assay with ubiquitin-Lys-TAMRA substrate; format: biochemical; conditions: biochemical inhibition; unit not given in Table 3b (Table 1 and key of Table 3a use μM); read-out: USP7 IC50 activity (Table 3b)
reportedMetric: IC50 (µM)
Enter your answer as a number in µM; do not include the unit.

stdin: Tell me reported IC50 for O=C(c1ccc(Cl)cc1)N1CCC(O)(Cn2cnc3c(cc(Cl)n3-c3ccc([C@@H]4COC5(CCC5)CN4)cc3)c2=O)CC1 (racemic) , tested with UniProtKB Q93009.
stdout: 0.113

stdin: Cc1cc(-n2c(Cl)cc3c(=O)n(CC4(O)CCN(C(=O)c5ccc(C6CC6)cc5)CC4)cnc32)ccc1[C@H]1CO[C@H](C)CN1 ?
stdout: 0.16

stdin: CC1(C(=O)N2CCC(O)(Cn3cnc4c(cc(Cl)n4-c4ccc(C5COCC6(CC6)N5)cc4)c3=O)CC2)CC1 (stereo not drawn) ?
stdout: 0.372

stdin: C[C@H]1CN[C@H](c2ccc(-n3c(Cl)cc4c(=O)n(CC5(O)CCN(C(=O)c6ccc(Cl)cc6F)CC5)cnc43)cc2)CO1 ?
stdout: 0.164

stdin: C[C@H]1CN[C@H](c2ccc(-n3c(Cl)cc4c(=O)n(CC5(O)CCN(C(=O)c6ccc(Cl)cc6)CC5)cnc43)cc2)CO1 ?
stdout: 0.222

stdin: O=C(c1ccc(Cl)cc1)N1CCC(O)(Cn2cnc3c(cc(Cl)n3-c3ccc([C@H]4CO[C@H](C5CC5)CN4)cc3)c2=O)CC1 (single isomer, unassigned) ?
stdout: 0.128

----------
test: Kinetic solubility in PBS buffer; assay type: physicochemical; settings: aqueous buffer, kinetic from dmso stock; PBS buffer pH 7.4
Please go through the items and note down their solubility kinetic at 90 min.
Enter your answer as a number in µM; do not include the unit.

stdin: Fill blank: measured solubility kinetic at 90 min of the molecule C[C@H]1CN[C@H](c2ccc(-n3c(Cl)cc4c(=O)n(CC5(O)CCN(C(=O)c6ccc(F)cc6)CC5)cnc43)cc2)CO1 is ____.
stdout: 203

stdin: C[C@H]1CN[C@H](c2ccc(-n3c(Cl)cc4c(=O)n(CC5(O)CCN(C(=O)[C@]6(C)C[C@H]6C(F)(F)F)CC5)cnc43)cc2)CO1 (single isomer, unassigned) ?
stdout: 197

stdin: CC1(C(=O)N2CCC(O)(Cn3cnc4c(cc(Cl)n4-c4cccc(N5CCOCC5)c4)c3=O)CC2)CC1 [Comparative Example, reference compound] ?
stdout: 151

----------
Please go through the items and note down their pIC50.
target: USP7 (Homo sapiens (Human)); assay: USP7 fluorescence polarisation (FP) assay with ubiquitin-Lys-TAMRA substrate; format: biochemical; conditions: biochemical inhibition; read-out: USP7 IC50 activity (Table 3a, classes)
pIC50: −log10 of the molar value.

stdin: Fill blank: measured pIC50 of the compound Cc1cc(-n2c(Cl)cc3c(=O)n(CC4(O)CCN(C(=O)c5ccc(C6CC6)cc5)CC4)cnc32)ccc1[C@H]1CO[C@H](C)CN1 is ____.
stdout: 6.60 to 7.00

stdin: C[C@H]1CN[C@H](c2ccc(-n3c(Cl)cc4c(=O)n(CC5(O)CCN(C(=O)C6(C)CC6)CC5)cnc43)cc2)CO1 (racemic) [Example 1] ?
stdout: > 7.00

stdin: C[C@@H]1CN[C@@H](c2ccc(-n3c(Cl)cc4c(=O)n(CC5(O)CCN(C(=O)C[C@H](c6ccccc6)C(F)(F)F)CC5)cnc43)cc2)CO1 ?
stdout: > 7.00

stdin: CN1CCOCC1c1ccc(-n2c(Cl)cc3c(=O)n(CC4(O)CCN(C(=O)C5(C)CC5)CC4)cnc32)cc1 (stereo not drawn) ?
stdout: 5.70 to 6.60

stdin: C[C@H]1CN[C@H](c2ccc(-n3c(Cl)cc4c(=O)n(CC5(O)CCN(C(=O)c6ccc(C(F)(F)F)cc6)CC5)cnc43)cc2)CO1 ?
stdout: 6.60 to 7.00

stdin: C[C@H]1CN[C@@H](c2ccc(-n3c(Cl)cc4c(=O)n(CC5(O)CCN(C(=O)c6ccc(Cl)cc6)CC5)cnc43)cc2)CO1 (single isomer, unassigned) ?
stdout: 5.70 to 6.60

stdin: Cc1cc(-n2c(Cl)cc3c(=O)n(CC4(O)CCN(C(=O)c5ccc(C(F)F)cc5)CC4)cnc32)ccc1[C@H]1CO[C@H](C)CN1 ?
stdout: 6.60 to 7.00

stdin: O=C(N1CCC(O)(Cn2cnc3c(cc(Cl)n3-c3ccc([C@@H]4COC5(CCC5)CN4)cc3)c2=O)CC1)C1(C2CC2)CC1 (racemic) ?
stdout: > 7.00

stdin: CC1(C)CN[C@@H](c2ccc(-n3c(Cl)cc4c(=O)n(CC5(O)CCN(C(=O)c6ccc(F)cc6)CC5)cnc43)cc2)CO1 (single isomer, unassigned) ?
stdout: 6.60 to 7.00

stdin: Cc1cc(-n2c(Cl)cc3c(=O)n(CC4(O)CCN(C(=O)c5ccc(Cl)cc5)CC4)cnc32)ccc1[C@@H]1CO[C@@H](C)CN1 ?
stdout: 6.60 to 7.00

stdin: C[C@@H]1CN[C@@H](c2ccc(-n3c(Cl)cc4c(=O)n(CC5(O)CCN(C(=O)[C@@]6(C)C[C@@H]6C(F)(F)F)CC5)cnc43)cc2)CO1 ?
stdout: 6.60 to 7.00

stdin: O=C(C[C@H](c1ccccc1)C(F)(F)F)N1CCC(O)(Cn2cnc3c(cc(Cl)n3-c3ccc([C@@H]4COCCN4)cc3)c2=O)CC1 (single isomer, unassigned) ?
stdout: > 7.00

----------
Please go through the items and note down their IC50.
target: USP7 (Homo sapiens (Human), UniProt Q93009); assay: USP7 fluorescence polarisation (FP) assay with ubiquitin-Lys-TAMRA substrate; format: biochemical; settings: biochemical inhibition; unit not given in Table 3b (Table 1 and key of Table 3a use μM); read-out: USP7 IC50 activity (Table 3b)
Sequence (Q93009 whole entry): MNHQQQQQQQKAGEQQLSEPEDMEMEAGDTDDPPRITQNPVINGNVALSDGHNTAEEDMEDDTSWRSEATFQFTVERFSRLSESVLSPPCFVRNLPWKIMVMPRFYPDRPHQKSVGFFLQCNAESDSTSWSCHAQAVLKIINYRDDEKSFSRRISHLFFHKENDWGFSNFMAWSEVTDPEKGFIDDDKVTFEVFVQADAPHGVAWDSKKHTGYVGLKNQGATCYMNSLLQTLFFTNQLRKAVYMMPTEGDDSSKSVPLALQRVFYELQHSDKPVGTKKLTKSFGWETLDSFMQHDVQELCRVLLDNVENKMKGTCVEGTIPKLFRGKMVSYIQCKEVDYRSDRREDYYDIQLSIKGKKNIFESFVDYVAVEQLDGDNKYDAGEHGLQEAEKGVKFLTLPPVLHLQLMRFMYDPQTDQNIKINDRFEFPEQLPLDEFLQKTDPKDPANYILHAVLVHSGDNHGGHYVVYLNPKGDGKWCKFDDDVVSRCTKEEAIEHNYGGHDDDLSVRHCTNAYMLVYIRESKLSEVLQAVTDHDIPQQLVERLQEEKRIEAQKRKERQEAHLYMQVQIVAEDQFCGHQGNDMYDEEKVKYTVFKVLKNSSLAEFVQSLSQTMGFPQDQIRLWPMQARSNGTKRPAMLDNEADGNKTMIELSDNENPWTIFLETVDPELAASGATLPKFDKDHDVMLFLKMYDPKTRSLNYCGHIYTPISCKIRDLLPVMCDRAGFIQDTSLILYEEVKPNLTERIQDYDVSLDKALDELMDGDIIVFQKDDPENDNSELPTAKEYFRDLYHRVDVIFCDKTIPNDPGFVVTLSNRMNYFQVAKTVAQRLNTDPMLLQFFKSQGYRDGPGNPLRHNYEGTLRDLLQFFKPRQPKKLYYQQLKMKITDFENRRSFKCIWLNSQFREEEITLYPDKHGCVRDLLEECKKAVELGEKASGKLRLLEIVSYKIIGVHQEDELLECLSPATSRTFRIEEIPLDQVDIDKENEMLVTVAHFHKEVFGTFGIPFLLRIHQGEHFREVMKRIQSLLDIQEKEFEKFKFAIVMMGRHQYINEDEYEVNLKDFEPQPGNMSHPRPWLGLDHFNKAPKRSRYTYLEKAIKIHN
Enter your answer as a number in µM; do not include the unit.

stdin: Fill blank: measured IC50 of the molecule CC1(C)CN[C@H](c2ccc(-n3c(Cl)cc4c(=O)n(CC5(O)CCN(C(=O)C6(C)CC6)CC5)cnc43)cc2)CO1 (single isomer, unassigned) is ____.
stdout: 0.045

stdin: C[C@@H]1CN[C@@H](c2ccc(-n3c(Cl)cc4c(=O)n(CC5(O)CCN(C(=O)[C@]6(C)C[C@H]6C(F)(F)F)CC5)cnc43)cc2)CO1 ?
stdout: 0.042

stdin: CC1(C(=O)N2CCC(O)(Cn3cnc4c(cc(Cl)n4-c4ccc(C5(C)COCCN5)cc4)c3=O)CC2)CC1 (stereo not drawn) ?
stdout: 0.132

stdin: O=C(c1ccc(Cl)cc1)N1CCC(O)(Cn2cnc3c(cc(Cl)n3-c3ccc(C4COC5CCCCC5N4)cc3)c2=O)CC1 (stereo not drawn) ?
stdout: 0.264

stdin: C[C@H]1CN[C@H](c2ccc(-n3c(Cl)cc4c(=O)n(CC5(O)CCN(C(=O)c6cccc(F)c6)CC5)cnc43)cc2)CO1 ?
stdout: 0.302

stdin: CC1(C)COCC(c2ccc(-n3c(Cl)cc4c(=O)n(CC5(O)CCN(C(=O)C6(C)CC6)CC5)cnc43)cc2)N1 (stereo not drawn) ?
stdout: 0.169

----------
Molecular target: USP7 (Homo sapiens (Human))
Assay: USP7 fluorescence polarisation (FP) assay with ubiquitin-Lys-TAMRA substrate
Type: biochemical
Conditions: biochemical inhibition; read-out: USP7 IC50 activity (Table 3a, classes)
Method: USP7 activity was monitored in a fluorescence polarisation (FP) homogeneous assay using the isopeptide ubiquitin-Lys-TAMRA substrate (U-558, Boston Biochem). Full-length USP7 was purchased from Boston Biochem (His6-USP7FL, E-519). […] FP was measured every 5 min over a period of 1.5 h (within the linear range of the assay) using a Pherastar FSX (BMG Labtech) exciting at 530 nm and measuring the amount of parallel and perpendicular light at 575 nm. […]
reportedMetric: IC50

stdin: Fill blank: measured IC50 of the compound CC1(C)CN[C@H](c2ccc(-n3c(Cl)cc4c(=O)n(CC5(O)CCN(C(=O)c6ccc(Cl)cc6)CC5)cnc43)cc2)CO1 (single isomer, unassigned) is ____.
stdout: < 100 nM

stdin: O=C(C[C@H](c1ccccc1)C(F)(F)F)N1CCC(O)(Cn2cnc3c(cc(Cl)n3-c3ccc([C@H]4COCCN4)c(Cl)c3)c2=O)CC1 (mixture of isomers) ?
stdout: 100 to 250 nM

stdin: CC1(C(=O)N2CCC(O)(Cn3cnc4c(cc(Cl)n4-c4ccc(C5CNCCO5)cc4)c3=O)CC2)CC1 (stereo not drawn) ?
stdout: 100 to 250 nM

----------
Target: USP7 (Homo sapiens (Human))
Assay: USP7 fluorescence polarisation (FP) assay with ubiquitin-Lys-TAMRA substrate
Type: biochemical
Details: biochemical inhibition; unit not given in Table 3b (Table 1 and key of Table 3a use μM); read-out: USP7 IC50 activity (Table 3b)
Method: USP7 activity was monitored in a fluorescence polarisation (FP) homogeneous assay using the isopeptide ubiquitin-Lys-TAMRA substrate (U-558, Boston Biochem). Full-length USP7 was purchased from Boston Biochem (His6-USP7FL, E-519). […] FP was measured every 5 min over a period of 1.5 h (within the linear range of the assay) using a Pherastar FSX (BMG Labtech) exciting at 530 nm and measuring the amount of parallel and perpendicular light at 575 nm. […]
reportedMetric: IC50 (µM)
Enter your answer as a number in µM; do not include the unit.

stdin: Fill blank: measured IC50 of the compound CC1(C(=O)N2CCC(O)(Cn3cnc4c(cc(Cl)n4-c4ccc([C@@H]5COCCN5)cc4)c3=O)CC2)CC1 (single isomer, unassigned) [Example 71] is ____.
stdout: 0.094

stdin: O=C(C[C@H](c1ccccc1)C(F)(F)F)N1CCC(O)(Cn2cnc3c(cc(Cl)n3-c3ccc([C@H]4COCCN4)c(C(F)(F)F)c3)c2=O)CC1 (mixture of isomers) [Example 87] ?
stdout: 0.292

stdin: CC[C@H]1CN[C@H](c2ccc(-n3c(Cl)cc4c(=O)n(CC5(O)CCN(C(=O)C6(C)CC6)CC5)cnc43)cc2)CO1 [Example 106] ?
stdout: 0.121

stdin: Cc1cc(-n2c(Cl)cc3c(=O)n(CC4(O)CCN(C(=O)c5ccc(C(F)(F)F)cc5)CC4)cnc32)ccc1[C@H]1CO[C@H](C)CN1 [Example 56] ?
stdout: 0.113

stdin: Cc1cc(Cl)ccc1C(=O)N1CCC(O)(Cn2cnc3c(cc(Cl)n3-c3ccc([C@@H]4CO[C@@H](C)CN4)cc3)c2=O)CC1 [Example 90] ?
stdout: 0.293

stdin: O=C(C[C@H](c1ccccc1)C(F)(F)F)N1CCC(O)(Cn2cnc3c(cc(Cl)n3-c3ccc([C@H]4COCCN4)c(Cl)c3)c2=O)CC1 (mixture of isomers) [Example 86] ?
stdout: 0.134

stdin: Cc1cc(-n2c(Cl)cc3c(=O)n(CC4(O)CCN(C(=O)C5(C)CC5)CC4)cnc32)ccc1[C@@H]1COCCN1 (single isomer, unassigned) [Example 74] ?
stdout: 0.112

stdin: CC1(C)CN[C@H](c2ccc(-n3c(Cl)cc4c(=O)n(CC5(O)CCN(C(=O)c6ccc(Cl)cc6)CC5)cnc43)cc2)CO1 (single isomer, unassigned) [Example 34] ?
stdout: 0.088

stdin: CC1(C)CN[C@H](c2ccc(-n3c(Cl)cc4c(=O)n(CC5(O)CCN(C(=O)c6ccc(F)cc6)CC5)cnc43)cc2)CO1 (single isomer, unassigned) [Example 29] ?
stdout: 0.118

stdin: O=C(N1CCC(O)(Cn2cnc3c(cc(Cl)n3-c3ccc([C@@H]4NC[C@@H]5CC[C@H]4O5)cc3)c2=O)CC1)C1(C2CC2)CC1 [Example 49] ?
stdout: 0.223

stdin: CC1(C(=O)N2CCC(O)(Cn3cnc4c(cc(Cl)n4-c4ccc([C@@H]5CO[C@@H](C6CC6)CN5)cc4)c3=O)CC2)CC1 [Example 100] ?
stdout: 0.079

stdin: C[C@@H]1CN[C@@H](c2ccc(-n3c(Cl)cc4c(=O)n(CC5(O)CCN(C(=O)c6ccc(Cl)cc6)CC5)cnc43)cc2)CO1 [Example 11] ?
stdout: 0.08
